biological target: T. gondii ME49Luc in IFN-y HeLa, luciferase, 72 h; test: T. gondii growth inhibition with IFN-gamma, dose response, cell-based, ME49Luc, HeLa, luciferase, 72 h (AID 1259418)
Results filed as inconclusive are left out. The source made the active and inactive calls.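 How the source made its calls: active means fitted half-maximal concentration of signal decrease at or below twice the sample's top tested concentration; inconclusive means flat curve between -70 and -30 percent, or poor fit; inactive means flat within 30 percent, signal rise, or potency above limit.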
Hello, when you answer, please use one of the following outcomes: active, inactive

Field: example entries. Status: answers known.
COc1ccccc1-c1noc(-c2nnn(Cc3nc(-c4ccc(C)cc4)oc3C)c2C)n1 = active
Cc1cccc(C(=O)N2CCC3(CC2)Nc2cc(F)ccc2-n2cccc23)c1 = inactive
O=C(CC1N=C2c3ccccc3N=C(SCc3ccc(F)cc3)N2C1=O)NCc1ccco1 (stereo not given) = active
CCSc1ccc(-c2sc(-c3ccc(OC)cc3)nc2C)nn1 = inactive
O=C(NCCc1csc(-c2ccccc2)n1)C1CCN(S(=O)(=O)c2cccc(Cl)c2)CC1 = inactive

We next turn to a different molecule, shown below.
Prompt: Each molecule tested received a call. Report the one for COc1ccc(-c2nc(NCCCN3CCCC(C)C3)c3ccccc3n2)cc1 (stereo not given) .
Response: inactive

---

target: T. gondii ME49Luc in IFN-y HeLa, luciferase, 72 h; experiment: T. gondii growth inhibition with IFN-gamma, dose response, cell-based, ME49Luc, HeLa, luciferase, 72 h (AID 1259418)
Inconclusive results are not listed. The source made the active and inactive calls.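 How the source made its calls: active means fitted half-maximal concentration of signal decrease at or below twice the sample's top tested concentration; inconclusive means flat curve between -70 and -30 percent, or poor fit; inactive means flat within 30 percent, signal rise, or potency above limit.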
A collection of molecules and their measured AC50

Examples from the recorded data:
COc1ccccc1-c1nc(C)c(-c2ccc(SCc3ccccc3Cl)nn2)s1 = > 39 µM (inactive)
COc1ccccc1-c1nc(CN(c2ccccc2OC)S(=O)(=O)c2ccccc2C)c(C)o1 = 6.87 µM
Cc1ccccc1S(=O)(=O)N1CCCCN2[C@H](C1)[C@H](c1ccc(C#CCN(C)C)cc1)[C@@H]2CO = 18.6 µM

// sample "COc1ccc(-c2nc(CSc3nc4c(c(=O)[nH]3)CN(Cc3ccc(F)cc3)CC4)c(C)o2)cc1" , its AC50 was 23.2 µM

// sample CN(C)C1CCN(Cc2cccc(C#N)c2)C(C(=O)O)C1 (centres undefined) , its AC50 was 9.32 µM

// sample "CC(C)N1c2ccc(F)cc2[C@@H]2CN(C(=O)c3ccco3)CC[C@H]21" , its AC50 was 12.8 µM

// sample "COc1cccc(-c2nc3c(s2)CN(C(=O)Nc2ccc(Cl)cc2)CC3)c1" , its AC50 was > 20 µM (inactive)

// sample "CCOc1ccc(-c2nc(CN(c3cccc(OC)c3)S(=O)(=O)c3ccccc3)c(C)o2)cc1" , its AC50 was 6.87 µM

// sample "O=C(Cc1cccnc1)N1CC(=O)N2[C@H](CO)[C@H](c3ccc(C#CC4CCCCC4)cc3)[C@H]2C1" , its AC50 was 19.4 µM

// sample "O=S(=O)(c1ccc2c(c1)CCCC2)N1CCC2(CC1)NCCN=C2NCc1ccc2c(c1)OCO2" , its AC50 was 11.1 µM

// sample "OC[C@H]1[C@H](c2ccc(C#Cc3ccccc3F)cc2)[C@@H]2CN(CC3CCOCC3)CCCCN12" , its AC50 was 9.56 µM

// sample "Cc1ccc(-c2nc(CN(c3ccccc3)S(=O)(=O)c3cccs3)c(C)o2)cc1" , its AC50 was 10.8 µM

// sample "CN(C)CC(=O)N1[C@H](C#N)[C@H](c2ccc(C#CC3CCCCC3)cc2)[C@@H]1CO" , its AC50 was 14.8 µM

// sample "C=CC[C@@H]1CC=C[C@@H](C)N1C(=O)CCn1c(C)cc(C)nc1=O" , its AC50 was 26.4 µM
